Recorded koff for the following binders
Target: canine IL-4RA (construct not given) (canine)
Experiment: SPR, IL-4RA immobilised, periplasmic Fab

| Binder | koff / s⁻¹ |
| --- | --- |
| FJ2246MP06C02 (Fab, V domains shown) VH: EVQLVESGGDLVKPGGSLRLSCVASGFTFRDYAMTWVRQAPGKGLQWVSLINGDGSKVYYADAVKGRFTISRDNAKNTLYLQMNSLRAEDTAVYYCAVDRLTKTIRPQYYGLWVWGQGTLVTVSS VL: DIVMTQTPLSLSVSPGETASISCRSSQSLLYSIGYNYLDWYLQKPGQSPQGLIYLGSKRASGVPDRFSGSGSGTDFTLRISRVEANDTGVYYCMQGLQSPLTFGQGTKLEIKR | 0.000126 |
| FJ2246MP10D01 (Fab, V domains shown) VH: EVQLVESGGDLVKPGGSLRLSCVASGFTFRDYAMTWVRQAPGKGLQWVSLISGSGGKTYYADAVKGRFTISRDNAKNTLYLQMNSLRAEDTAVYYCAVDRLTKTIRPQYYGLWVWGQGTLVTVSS VL: DIVMTQTPLSLSVSPGETASISCRSSQSLLYSIGYNYLDWYLQKPGQSPQGLIYLGSKRASGVPDRFSGSGSGTDFTLRISRVEADDTGVYYCMQGLQSPLSFGQGTKLEIK | 0.000137 |
| FJ2246MP10B02 (Fab, V domains shown) VH: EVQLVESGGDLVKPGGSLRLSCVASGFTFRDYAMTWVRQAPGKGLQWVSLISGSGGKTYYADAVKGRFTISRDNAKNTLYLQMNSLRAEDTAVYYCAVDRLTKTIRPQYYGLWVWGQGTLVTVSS VL: DIVMTQTPLSLSVSPGETASISCRSSQSLLYSIGYNYLDWYLQKPGQSPQGLIYLGSKRASGVPDRFSGSGSGTDFTLRISRVEANDTGVYYCMQGLHSPLTFGQGTKLEIK | 0.000127 |
| FJ2246MP07A10 (Fab, V domains shown) VH: EVQLVESGGDLVKPGGSLRLSCVASGFTFRDYAMTWVRQAPGKGLQWVSLINGSGGKTYYADAVKGRFTISRDNAKNTLYLQMNSLRAEDTAVYYCAVDRLTKTVRPQYYGLWSWGQGTLVTVSS VL: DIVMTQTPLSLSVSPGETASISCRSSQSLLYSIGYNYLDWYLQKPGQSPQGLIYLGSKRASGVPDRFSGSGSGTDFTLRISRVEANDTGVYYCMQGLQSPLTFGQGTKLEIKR | 8.18e-05 |
